- measured target: VMAT-2 (Rattus norvegicus)
- Sequence (Q01827 whole entry): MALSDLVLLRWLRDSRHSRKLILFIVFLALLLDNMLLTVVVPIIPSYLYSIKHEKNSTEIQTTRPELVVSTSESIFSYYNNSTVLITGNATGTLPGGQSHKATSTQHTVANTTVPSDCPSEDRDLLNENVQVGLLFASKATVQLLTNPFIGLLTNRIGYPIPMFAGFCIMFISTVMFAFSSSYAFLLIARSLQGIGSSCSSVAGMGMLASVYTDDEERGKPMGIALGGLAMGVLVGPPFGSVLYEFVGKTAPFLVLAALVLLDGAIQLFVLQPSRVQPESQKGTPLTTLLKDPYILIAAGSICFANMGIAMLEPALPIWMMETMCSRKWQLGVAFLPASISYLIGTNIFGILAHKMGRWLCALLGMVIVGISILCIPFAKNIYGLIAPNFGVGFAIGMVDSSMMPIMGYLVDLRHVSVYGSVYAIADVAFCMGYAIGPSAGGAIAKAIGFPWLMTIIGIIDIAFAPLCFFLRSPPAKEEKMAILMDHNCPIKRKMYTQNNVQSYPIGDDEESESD
endpoint name: pKi
Scale note: pKi = -log10(concentration in M).

// recorded pKi for COc1cc2c(cc1OC)[C@H]1C[C@@H](OCCCF)[C@H](CC(C)C)CN1CC2 [Compound 23] : 8.19
